Target: T1, regulator of proteinase B (RopB), full-length, wild type (Streptococcus pyogenes (strain …))
T1 chain: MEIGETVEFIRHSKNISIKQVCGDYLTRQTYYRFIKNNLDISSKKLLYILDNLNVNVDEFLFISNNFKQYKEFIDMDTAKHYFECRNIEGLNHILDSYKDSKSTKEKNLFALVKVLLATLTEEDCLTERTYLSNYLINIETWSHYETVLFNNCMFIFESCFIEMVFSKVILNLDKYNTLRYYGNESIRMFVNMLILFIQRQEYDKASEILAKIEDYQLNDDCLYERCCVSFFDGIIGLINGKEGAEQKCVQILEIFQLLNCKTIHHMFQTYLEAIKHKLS
Test: FP; pH 7.5
Where no end group is shown, it is not given here. The star is where a group is joined. FITC = O=C1OC2(c3ccc(O)cc3Oc3cc(O)ccc32)c2ccc(NC(=S)*)cc21
READOUT: pKd
Kindly note that pKd refers to -log10 of the concentration in mol/L and answer with the value alone.

Could you tell me which pKd is on file for {FITC}-MWLLLLFL [synthetic SIP peptide containing fluorescein modification at its amino-terminus (FITC-SIP)] ?
7.38

The measurements presented in this section are drawn from paper PMC6565748.
